Listed here are compounds together with their documented MIC.
- Test system: Streptococcus pyogenes
- TEST_DESCRIPTION: MIC by NCCLS reference broth microdilution, 450 respiratory tract pathogens
- Type: cell-based
- RECORDED_CONDITIONS: Streptococcus pyogenes, Streptococcus pyogenes (n = 100)

{"columns": ["COMPOUND", "MIC"],
 "data": [
  ["O=C(O)c1cn(C2CC2)c2cc(N3CCNCC3)c(F)cc2c1=O", "0.12 to 2 µg/mL"],
  ["N[C@@H]1[C@H]2CN(c3nc4c(cc3F)c(=O)c(C(=O)O)cn4-c3ccc(F)cc3F)C[C@@H]12", "0.03 to 1 µg/mL"],
  ["CO/N=C1\\CN(c2nc3c(cc2F)c(=O)c(C(=O)O)cn3C2CC2)CC1CN (racemic)", "0.00375 to 0.06 µg/mL"],
  ["C[C@H]1COc2c(N3CCN(C)CC3)c(F)cc3c(=O)c(C(=O)O)cn1c23", "0.06 to 2 µg/mL"],
  ["NC1CCN(c2c(F)cc3c(=O)c(C(=O)O)cn(C4CC4)c3c2Cl)C1 (stereo not shown)", "0.015 to 0.12 µg/mL"],
  ["C[C@@H]1CN(c2c(F)c(N)c3c(=O)c(C(=O)O)cn(C4CC4)c3c2F)C[C@H](C)N1", "0.06 to 1 µg/mL"],
  ["CO/N=C(\\C(=O)N[C@@H]1C(=O)N2C(C(=O)O)=C(COC(N)=O)CS[C@H]12)c1ccco1", "0.00375 to 0.015 µg/mL"]
]}

Origin of the recorded values: patent EP1561465A2
